assay-procedure: yeast NALP1 reporter signal suppression – S. cerevisiae, luminescence, single concentration, NALP1 inhibitor project, confirmation (AID 488841);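 further: plate controls were DMSO in galactose medium for no effect and cells in plain SD medium for full effect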
experimental-parameters: S. cerevisiae NALP1/ASC/Caspase-1 reporter, beta-gal luminescence; at 10 µM; hits give high values
Out of some 1,400 compounds screened, about 380 (27%) were called active. The list shows a part of the results.
Returns rule met if the recorded inhibition is greater than or equal to 50%, and rule not met otherwise.

[[record]]
compound = "COC(=O)Nc1nc(C)c(C(=O)c2ccccc2)s1"
class_name = "rule not met"

[[record]]
compound = "COCCCN(CCCN)Cc1ccco1"
class_name = "rule met"

[[record]]
compound = "C/C(=C(\\C#N)C(=O)NCc1ccccc1)N(C)C"
class_name = "rule not met"

[[record]]
compound = "Cc1cc(OCCN2CCCC2)cc(C(C)C)c1"
class_name = "rule not met"

[[record]]
compound = "COC(=O)c1ccccc1NC(=O)C1CCN(C(=O)c2cc(OC)cc(OC)c2)CC1"
class_name = "rule not met"

[[record]]
compound = "COC(=O)Nc1sc2nc(C)cc(C)c2c1-n1cccc1"
class_name = "rule met"

[[record]]
compound = "S=c1[nH]nc(-c2ccco2)n1/N=C/c1cccc(Cl)c1Cl"
class_name = "rule met"

[[record]]
compound = "O=C(NC1CCCC1)c1ccc(CN2CCOCC2)cc1"
class_name = "rule not met"

[[record]]
compound = "Cc1nc(NC(=O)CCc2ccccc2)ccc1Br"
class_name = "rule met"

[[record]]
compound = "CCOC(=O)c1c(C)[nH]c(N=Nc2cccc(C)c2)c1C"
class_name = "rule not met"

[[record]]
compound = "O=C(NC(Cc1c[nH]c2ccccc12)C(=O)O)/C(=C\\c1ccc2c(c1)OCO2)NC(=O)c1ccccc1 (centres undefined)"
class_name = "rule not met"

[[record]]
compound = "CCOC(=O)C(=O)C1=C(N2CCOCC2)/C(=C\\c2ccc(F)cc2)CC1"
class_name = "rule not met"

[[record]]
compound = "O=C(/C=C/c1c[nH]c2ccccc12)c1ccccc1"
class_name = "rule met"

[[record]]
compound = "Cc1noc(C)c1S(=O)(=O)N1CCC(C(=O)N2CCC(N3CCCCC3)CC2)CC1"
class_name = "rule not met"

[[record]]
compound = "O=c1oc2ccccc2nc1/C=C(O)/C=C/c1ccc(F)cc1"
class_name = "rule not met"

[[record]]
compound = "Cc1ccsc1/C=N/n1c(-c2ccccn2)n[nH]c1=S"
class_name = "rule not met"

[[record]]
compound = "COc1ccnc(N2CCN(c3ccccc3)CC2)c1C#N"
class_name = "rule met"

[[record]]
compound = "CN(C)c1ccc(N/C=C/C(=O)c2ccccc2)cc1"
class_name = "rule not met"

[[record]]
compound = "COc1ccc(NC(=S)N(C(C)C)C2CCN(C(C)C)CC2)cc1Cl"
class_name = "rule not met"

[[record]]
compound = "Cc1n[nH]c(C)c1S(=O)(=O)N1CCN(C2CCCCC2)CC1"
class_name = "rule not met"

[[record]]
compound = "CN1CCN(S(=O)(=O)c2ccc(NC(=S)NC(=O)C(C)(C)C)cc2)CC1"
class_name = "rule not met"


###

inhibition values by entry
assay-procedure: yeast NALP1 reporter signal suppression – S. cerevisiae, luminescence, single concentration, NALP1 inhibitor project, confirmation (AID 488841);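 further: plate controls were DMSO in galactose medium for no effect and cells in plain SD medium for full effect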
experimental-parameters: S. cerevisiae NALP1/ASC/Caspase-1 reporter, beta-gal luminescence; at 10 µM; hits give high values
Hit rate of the full screen: of about 1,400 compounds, about 380 (27%) were called active. Some of the results follow.
measured-metric: inhibition

[[record]]
compound = "COC(=O)c1c(S(=O)(=O)NCc2ccccc2)sc(C(=O)O)c1C"
measured_result = "22% (inactive)"

[[record]]
compound = "O=[N+]([O-])c1ccc(NC(=S)NCCc2ccc(F)cc2)cc1"
measured_result = "85.5% (active)"

[[record]]
compound = "C=CCNC(=O)/C(C#N)=C/c1c(C)nn(-c2ccccc2)c1Cl"
measured_result = "60.3% (active)"

[[record]]
compound = "CCOc1cc(C(=O)OCC(=O)Nc2ncc(Cl)c(C)c2Cl)ccc1OCC(=O)N1CCOCC1"
measured_result = "27.4% (inactive)"

[[record]]
compound = "O=C(NC(CO)Cc1ccc([N+](=O)[O-])cc1)C(Cl)Cl (stereo not drawn)"
measured_result = "29.8% (inactive)"

[[record]]
compound = "CCC(C(=O)OC)n1cnc2scc(-c3ccc(C)c(C)c3)c2c1=O (stereo not drawn)"
measured_result = "98.8% (active)"

[[record]]
compound = "O=C(O)c1ccccc1SC1CC(=O)N(c2ccccc2)C1=O (stereo not drawn)"
measured_result = "37.8% (inactive)"

[[record]]
compound = "O=C(N/N=C\\c1cccc([N+](=O)[O-])c1O)C1COc2ccccc2O1 (stereo not drawn)"
measured_result = "56.7% (active)"

[[record]]
compound = "Cc1cc(C)cc(NS(=O)(=O)c2ccc(NC(=S)Nc3ccccc3)cc2)c1"
measured_result = "26.1% (inactive)"

[[record]]
compound = "O=C1c2ccccc2C(O)N1c1cccnc1 (stereo not drawn)"
measured_result = "27.9% (inactive)"

[[record]]
compound = "O=C(Oc1ccc(/C=N/NC(=O)c2ccccc2O)cc1)c1ccccc1"
measured_result = "30.9% (inactive)"

[[record]]
compound = "O=[N+]([O-])c1cc(Cc2ccccc2)cc(C=Nc2ccc(N3CCOCC3)cc2)c1O"
measured_result = "47.5% (inactive)"

[[record]]
compound = "Cc1nc(C)c(/C(O)=C/c2nc3ccccc3oc2=O)s1"
measured_result = "44.5% (inactive)"

[[record]]
compound = "CC(C)c1nc2sc3c(=O)[nH]cnc3c2c2c1CCC2"
measured_result = "22% (inactive)"

[[record]]
compound = "Clc1ccc2c(N/N=C/c3ccccc3Br)ccnc2c1"
measured_result = "39% (inactive)"

[[record]]
compound = "S=C(NCCc1ccccc1)Nc1ccc(Br)cc1"
measured_result = "70.2% (active)"

[[record]]
compound = "O=[N+]([O-])c1ccc(N2CCN(C(=S)Nc3ccccc3)CC2)cc1"
measured_result = "32% (inactive)"

[[record]]
compound = "COC(=O)c1ccccc1SC1CC(=O)N(c2ccccc2)C1=O (stereo not drawn)"
measured_result = "40.2% (inactive)"

[[record]]
compound = "CC(C)NC(=O)/C(C#N)=C/c1cccc(NC(=O)c2ccccc2Cl)c1"
measured_result = "41.1% (inactive)"

[[record]]
compound = "Cc1c(N)c(C(C)(C)C)cc(C(C)(C)C)c1[N+](=O)[O-]"
measured_result = "29.1% (inactive)"

[[record]]
compound = "CCCCCCC(=O)N(O)C1CC(=O)N(Cc2ccccc2)C1=O (stereo not drawn)"
measured_result = "15.2% (inactive)"

[[record]]
compound = "O=C(O)c1ccc2c(c1)N(Cc1cccc(F)c1)C(=O)CS2"
measured_result = "19% (inactive)"

[[record]]
compound = "CC(=O)Nc1cccc(OCCCNC(=O)C2CCC2)c1"
measured_result = "28.2% (inactive)"


###

This listing pairs compounds with measured inhibition.
assay-procedure: yeast NALP1 reporter signal suppression – S. cerevisiae, luminescence, single concentration, NALP1 inhibitor project, confirmation (AID 488841);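 further: plate controls were DMSO in galactose medium for no effect and cells in plain SD medium for full effect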
experimental-parameters: S. cerevisiae NALP1/ASC/Caspase-1 reporter, beta-gal luminescence; at 10 µM; hits give high values
About 380 (27%) of roughly 1,400 compounds were called active. The list shows a part of the results.
measured-metric: inhibition (%)

[[record]]
compound = "Cc1ccc(CN(C(=O)CNC(=O)c2cccs2)C(C(=O)NCC2CCCO2)c2ccccc2)cc1 (centres undefined)"
measured_result = 20.4

[[record]]
compound = "Cc1ccc(OCCCCN2CCCCC2)c(Br)c1"
measured_result = 41.6

[[record]]
compound = "COc1ccccc1OCCN1CSC(=S)N(C)C1"
measured_result = 47

[[record]]
compound = "Cc1cc(C)cc(C(=O)OCC(=O)NCCNC(=O)COC(=O)c2cc(C)cc(C)c2)c1"
measured_result = 31.4

[[record]]
compound = "CC1=NN(c2ccc(C)cc2C)C(=O)C1C(c1cccc(O)c1)C1C(=O)N(c2ccc(C)cc2C)N=C1C (centres undefined)"
measured_result = 38

[[record]]
compound = "COc1ccc(N=c2cc(-c3ccc(OC)cc3)oc3ccccc23)cc1"
measured_result = 49.6

[[record]]
compound = "CCOC(=O)c1c(C)[nH]c(C)c1C(=O)COC(=O)c1cc2ccccc2cc1O"
measured_result = 37.1

[[record]]
compound = "CCOC(=O)C1=Nc2ccccc2C1=[N+]=[N-]"
measured_result = 37.8

[[record]]
compound = "CSc1ccc(CN(C)CC(=O)Nc2ccc(C)cc2Br)cc1"
measured_result = 47.1

[[record]]
compound = "COc1ccccc1/C=N\\N=C(\\N)c1ccccn1"
measured_result = 43.3

[[record]]
compound = "COc1cc(-c2nc(C(F)(F)F)c(OC)o2)cc(OC)c1OC"
measured_result = 28.9

[[record]]
compound = "Cc1ccc(OCCCCN(C)Cc2ccccc2)c(Br)c1"
measured_result = 61.5

[[record]]
compound = "Cc1cccc(Cn2c(C(C)(C)C)cc3cccnc32)c1"
measured_result = 26

[[record]]
compound = "Clc1ccc(SCCCCN2CCOCC2)cc1"
measured_result = 33

[[record]]
compound = "COc1cccc(C2c3c(-c4ccccc4O)n[nH]c3C(=O)N2Cc2ccco2)c1 (centres undefined)"
measured_result = 29.4

[[record]]
compound = "CC1CCCCC1NC(=O)/C(C#N)=C/c1ccccc1F (centres undefined)"
measured_result = 39.8

[[record]]
compound = "CCCCCCC1CCC(C(=O)Nn2c(C)nc3ccccc3c2=O)CC1 (centres undefined)"
measured_result = 44.8

[[record]]
compound = "COc1ccc(CNC(=O)CCNS(=O)(=O)c2ccc(C)cc2)cc1"
measured_result = 19.6

[[record]]
compound = "CCN(C(=O)c1ccco1)c1nnc(-c2ccc(OC)cc2)s1"
measured_result = 38

[[record]]
compound = "CCOC(=O)C1C(=O)Oc2ccc3ccccc3c2C1C1CCOC1=O (centres undefined)"
measured_result = 19.4

[[record]]
compound = "Cc1cc(C(=O)COC(=O)c2ccc[nH]c2=O)c(C)n1-c1ccc(F)cc1"
measured_result = 39

[[record]]
compound = "CCOC(=O)C1CCN(C(=O)c2cc3cc4cc(OC)ccc4nc3o2)CC1"
measured_result = 45.9

[[record]]
compound = "COc1ccc(CC2(C)OC(c3ccc(C)cc3)=NN2C(C)=O)cc1 (centres undefined)"
measured_result = 55.5

[[record]]
compound = "NC(C(=O)O)C1CC(Cl)=NO1 (centres undefined)"
measured_result = 24.8

